Reference source: patent US20070077583A1

tested on: MCF-7 cells; test: MTT cytotoxicity assay, MCF-7 cells transfected with α-enolase siRNA; type: cell-based, human; conditions: Homo sapiens, MCF7, 72 h, read-out: Control (EC50)
observable: EC50 (µM)
State the answer as a number, implicitly in µM.

Observed EC50 on MCF-7 cells for "N[C@@H](Cc1ccc(N(CCCl)CCCl)cc1)C(=O)O" , please.
14.7

###

tested on: H460 cells; assay: MTT cytotoxicity assay, H460 cells transfected with α-enolase siRNA; format: cell-based, human
observable: viability of α-enolase-silenced cells under drug treatment vs control cells

{"columns": ["compound", "assayed-target", "observed-result"],
 "data": [
  ["N.N.[Cl][Pt][Cl] [Cisplatinum]", "H460 cells", "decreased the viability"],
  ["CC[C@]1(O)C[C@H]2CN(CCc3c([nH]c4ccccc34)[C@@](C(=O)OC)(c3cc4c(cc3OC)N(C=O)[C@H]3[C@@](O)(C(=O)OC)[C@H](OC(C)=O)[C@]5(CC)C=CCN6CC[C@]43[C@@H]65)C2)C1", "H460 cells", "decreased the viability"],
  ["CC(=O)O[C@@]12CO[C@@H]1C[C@H](O)[C@@]1(C)C(=O)[C@H](O)C3=C(C)[C@@H](OC(=O)[C@H](O)[C@@H](NC(=O)OC(C)(C)C)c4ccccc4)C[C@@](O)([C@@H](OC(=O)c4ccccc4)[C@H]21)C3(C)C", "H460 cells", "decreased the viability"]
]}
